Tested on: Salmonella typhimurium
Assay: Antibacterial activity against Salmonella enterica subsp. enterica serovar Typhimurium MTCC 98 after 24 hr by agar well diffusion method
Assay type: functional
Conditions: MTCC 98, 24 h
For each record, check the reported MIC: if it is below 20 µg/mL write rule met, else write rule not met.

Use the examples below as a reference point.
> print(dat)
                            compound.smiles  discrete.label
1  CC(C)c1ccc(NC(=O)NCCNc2ccnc3c(F)cc(F)cc23)cc1    rule not met
2  Cc1ccc(NC(=O)NCCNc2ccnc3c(F)cc(F)cc23)cc1C    rule not met
3  Cc1ccc(F)cc1NC(=O)NCCNc1ccnc2c(F)cc(F)cc12    rule not met
4  O=C(NCCNc1ccnc2c(F)cc(F)cc12)Nc1ccccc1C(F)(F)F        rule met
5  O=C(NCCNc1ccnc2c(F)cc(F)cc12)Nc1ccc(C(F)(F)F)cc1    rule not met

Attention now shifts to the item below.
Incoming: API: query returns whether the molecule falls strictly under 20 µg/mL in MIC. Query: O=C(NCCNc1ccnc2c(F)cc(F)cc12)Nc1cc(C(F)(F)F)ccc1Cl
Outgoing: rule met
